Peptide text beside a SMILES is read from it.
Can you tell me logP for the items I'm about to list?
Reply with the value as a number alone.

Request: Consider the compound CN(C)C(=O)Nc1ccc(C2CCCCC2)cc1 and give its measured logP.
Response: 3.83

Request: Further, for CCC1Nc2cc(Cl)c(S(N)(=O)=O)cc2S(=O)(=O)N1 (configuration not stated) ?
Response: 0.3

Request: Further, for C1=CCCC=CCC1 ?
Response: 3.16

Request: Further, for CCCCCOCc1ccccc1NC(=O)OCCN1CCCCC1 ?
Response: 4.42

Request: Further, for NS(=O)(=O)Cc1ccccc1 ?
Response: 0.13

Request: Further, for CCCCn1cc(C)c(=O)[nH]c1=O ?
Response: 0.91

Request: Further, for O=C(O)c1ccccc1[N+](=O)[O-] ?
Response: 1.46

Request: Further, for CC[C@H](C)[C@H](NC(=O)[C@@H](NC(C)=O)C(C)C)C(=O)NCC(N)=O (Ac-Val-Ile-Gly-NH2) ?
Response: -0.45

Request: Further, for O=Cc1ccc2ccccc2n1 ?
Response: 2.14

Request: Further, for ON=CCCc1ccccc1 ?
Response: 1.56

Request: Further, for CCCC(NC(C)=O)C(=O)OC (configuration not stated) ?
Response: 0.33

Request: Further, for CC(=O)N[C@H](C(=O)N[C@@H](Cc1ccccc1)C(=O)N[C@@H](C)C(N)=O)C(C)C (Ac-Val-Phe-Ala-NH2) ?
Response: 0.06

Request: Further, for OCC(Cl)(Cl)Cl ?
Response: 1.42

Request: Further, for C#CC(C)N(C)C(=O)Nc1ccc(Cl)cc1 (configuration not stated) ?
Response: 3

Request: Further, for CC(=O)c1ccccn1 ?
Response: 0.85

Request: Further, for CNC(=O)Oc1ccc(C=O)cc1 ?
Response: 0.99

Request: Further, for Nc1ccc(I)cc1 ?
Response: 2.34

Request: Further, for NC(=O)Cc1ccncc1 ?
Response: -0.65

Request: Further, for COC(=O)CCc1ccccc1 ?
Response: 2.32

Request: Further, for ICI ?
Response: 2.3

Request: Further, for O=C(O)COc1cccc(C(F)(F)F)c1 ?
Response: 2.36

Request: Further, for C=CBr ?
Response: 1.57

Request: Further, for O=C(O)Cc1ccccc1Nc1c(F)cccc1Cl ?
Response: 3.8

Request: Further, for CC(=O)Nc1ccc2cccnc2c1 ?
Response: 1.55

Request: Further, for COc1cc(NC(=O)NC(=N)N)ccc1C#N ?
Response: 1.28

Request: Further, for CC(=O)Nc1cccs1 ?
Response: 1.1

Request: Further, for CCS(=O)(=O)CC ?
Response: -0.59

Request: Further, for CCC(C)C(=O)Nc1ccccc1 (configuration not stated) ?
Response: 2.56

Request: Further, for O=Nc1c(Br)cc2ccccc2c1O ?
Response: 2.93

Request: Further, for CC(C)NNC(=O)COc1ccc(Cl)cc1 ?
Response: 2.02

Request: Further, for COc1ccc(N(CCCC(=O)O)C(=O)c2ccc(Cl)cc2)cc1 ?
Response: 2.7

Request: Further, for OCC(Cl)Cl ?
Response: 0.37

Request: Further, for ON=Cc1ccccc1 ?
Response: 1.85

Request: Further, for CC(=O)c1cc2ccccc2nn1 ?
Response: 1.44

Request: Further, for Nc1ccccc1 ?
Response: 0.9

Request: Further, for O=NN1CCCC(O)C1 (configuration not stated) ?
Response: -0.47

Request: Further, for Nc1ccn([C@@H]2C=C(CO)[C@@H](O)[C@H]2O)c(=O)n1 ?
Response: -2.45

Request: Further, for O=C1CCC(=O)N1c1ccccc1I ?
Response: 0.8

Request: Further, for COC(=O)C(CC(C)C)NC(C)=O (configuration not stated) ?
Response: 0.84

Request: Further, for O=C(Cn1c(=O)sc2ccc(Cl)cc21)N1CCN(CCO)CC1 ?
Response: 1.04

Request: Further, for O=S(=O)(Nc1ccccc1)c1ccccc1 ?
Response: 2.58

Request: Further, for C#CCN(CC#C)CC#C ?
Response: 1.27

Request: Further, for Cc1cnc(NS(=O)(=O)c2ccc(N)cc2)c(Br)c1 ?
Response: 1.79

Request: Further, for CCC(C)c1cc([N+](=O)[O-])cc(C(C)C)c1O (configuration not stated) ?
Response: 4.19

Request: Further, for Cc1n[nH]c(C(=O)N2CCCCCC2)c1[N+](=O)[O-] ?
Response: 1.15

Request: Further, for Cc1ccc(C)n1N(C)c1ccc(N2CCOCC2)nn1 ?
Response: 2.21

Request: Further, for CCn1nnc2ccccc21 ?
Response: 1.58

Request: Further, for OCc1cccs1 ?
Response: 0.87

Request: Further, for C=CCC1(CC=C)C(=O)NC(=O)N(C)C1=O ?
Response: 1.55

Request: Further, for Nc1ccc2ccccc2c1S(=O)(=O)O ?
Response: -1.16

Request: Further, for CCCCCCC1CCC(=O)O1 (configuration not stated) ?
Response: 2.72

Request: Further, for CC(=O)Nc1cccc(C(F)(F)F)c1 ?
Response: 2.56
